In this section, each of the molecules is paired with its reported Activity.
test system: Brain; experiment: Neuroprotective activity against 6-OHDA-induced oxidative stress in rat brain synaptosomes assessed as cell viability at 40 uM by MTT assay relative to control; format: functional, subcellular; conditions: Synaptosome
# number only, unit % dropped from output

{"columns": ["chemical-structure", "measure-unit", "Activity"],
 "data": [
  ["COc1ccc(C(=O)N/N=C/c2ccc(Cl)cc2Cl)cc1O", "%", 56],
  ["COc1ccc2[nH]cc(/C=N\\NC(=O)c3ccoc3)c2c1", "%", 67],
  ["COc1ccc2[nH]cc(/C=N\\NC(=O)c3snnc3C)c2c1", "%", 67],
  ["COc1ccc2[nH]cc(/C=N\\NC(=O)c3ccc(Cl)cc3)c2c1", "%", 67],
  ["COc1ccc(C(=O)N/N=C/c2ccc(Cl)cc2Cl)cc1OC", "%", 56],
  ["COc1ccc2[nH]cc(/C=N\\NC(=O)c3c[nH]c4ccccc34)c2c1", "%", 56],
  ["COc1ccc2[nH]cc(/C=N\\NC(=O)Cc3c[nH]c4ccccc34)c2c1", "%", 56],
  ["Clc1ccc(-c2nnc(-c3ccccc3)o2)cc1", "%", 66]
]}

Please look at the following molecule next.
QUERY: Notebook: pull reported Activity for Brain, entry c1ccc(-c2nnc(-c3c[nH]c4ccccc34)o2)cc1
RESULT: 56

* * *

test: Toxicity in rat brain synaptosomes assessed as reduction in cell viability at 40 uM measured after 1 hr by MTT assay relative to control; format: subcellular, Synaptosome
measure-name: Activity

Record excerpt, results attached:
{"columns": ["chemical-structure", "Activity"],
 "data": [
  ["COc1ccc2[nH]cc(/C=N\\NC(=O)c3ccoc3)c2c1", "20%"],
  ["Clc1ccc(-c2nnc(-c3ccccc3)o2)cc1", "Non-Toxic"],
  ["COc1ccc2[nH]cc(/C=N\\NC(=O)Cc3c[nH]c4ccccc34)c2c1", "20%"],
  ["COc1ccc2[nH]cc(/C=N\\NC(=O)c3c[nH]c4ccccc34)c2c1", "20%"]
]}

QUERY: I would be grateful if you could share the reported Activity for COc1ccc(C(=O)N/N=C/c2ccc(Cl)cc2Cl)cc1OC .
RESULT: 20%

QUERY: I would be grateful if you could share the reported Activity for COc1ccc2[nH]cc(/C=N\NC(=O)c3snnc3C)c2c1 .
RESULT: 15%

QUERY: I would be grateful if you could share the reported Activity for COc1ccc(C(=O)N/N=C/c2ccc(Cl)cc2Cl)cc1O .
RESULT: 20%

QUERY: I would be grateful if you could share the reported Activity for c1ccc(-c2nnc(-c3c[nH]c4ccccc34)o2)cc1 .
RESULT: Non-Toxic

QUERY: I would be grateful if you could share the reported Activity for COc1ccc2[nH]cc(/C=N\NC(=O)c3ccc(Cl)cc3)c2c1 .
RESULT: 20%
